Test: Volume of distribution at steady state in Sprague-Dawley rat at 2 mg/kg, iv measured up to 8 hrs by LC-MS/MS analysis
Assay type: ADME, organism-based
Settings: in vivo, read-out: Vdss
reported endpoint: Vd (L/kg)
Give the number; L/kg is assumed, so skip it.

Given the compound C/C=C(\NC(=O)c1csc(-c2csc(-c3ccc4c(n3)-c3csc(n3)[C@H]([C@@H](C)O)NC(=O)c3csc(n3)[C@H](C(C)C)NC(=O)c3csc(n3)/C(=C/C)NC(=O)[C@H]([C@@H](C)O)NC(=O)c3csc-4n3)n2)n1)C(=O)NCC(C)=O , write its reported Vd.
2.1

---

Assay: MRT in Sprague-Dawley rat at 2 mg/kg, iv measured up to 8 hrs by LC-MS/MS analysis
Format: ADME, organism-based
Conditions: in vivo
reported endpoint: MRT (min)
The response must be a number in min with no trailing unit.

Report MRT for C/C=C(\NC(=O)c1csc(-c2csc(-c3ccc4c(n3)-c3csc(n3)[C@H]([C@@H](C)O)NC(=O)c3csc(n3)[C@H](C(C)C)NC(=O)c3csc(n3)/C(=C/C)NC(=O)[C@H]([C@@H](C)O)NC(=O)c3csc-4n3)n2)n1)C(=O)NCC(C)=O
24

---

Test: AUClast in Sprague-Dawley rat at 2 mg/kg, iv measured up to 8 hrs by LC-MS/MS analysis
Format: ADME, organism-based
Set-up: time < 8 hrs, dose 2 mg/kg, route iv
Conditions: in vivo
reported endpoint: AUC(0-t) at 8 h (ng·h/mL)
# output: bare number, implied unit ng·h/mL

Answer with reported AUC(0-t) at 8 h of C/C=C(\NC(=O)c1csc(-c2csc(-c3ccc4c(n3)-c3csc(n3)[C@H]([C@@H](C)O)NC(=O)c3csc(n3)[C@H](C(C)C)NC(=O)c3csc(n3)/C(=C/C)NC(=O)[C@H]([C@@H](C)O)NC(=O)c3csc-4n3)n2)n1)C(=O)NCC(C)=O
374

---

Assay: Half life in Sprague-Dawley rat at 2 mg/kg, iv measured up to 8 hrs by LC-MS/MS analysis
Type: ADME, organism-based
Settings: in vivo
reported endpoint: half-life
Mention the unit after the number when you answer.

Note half-life for the molecule shown: C/C=C(\NC(=O)c1csc(-c2csc(-c3ccc4c(n3)-c3csc(n3)[C@H]([C@@H](C)O)NC(=O)c3csc(n3)[C@H](C(C)C)NC(=O)c3csc(n3)/C(=C/C)NC(=O)[C@H]([C@@H](C)O)NC(=O)c3csc-4n3)n2)n1)C(=O)NCC(C)=O
48 min
